Experiment: Solubilizing test of puerarin
Format: physicochemical
Details: 25 °C, pH 6.86, aqueous buffer, thermodynamic from solid
MEASURE: solubility at 12 h

> print(dat)
                                   compound             measure    observed
1  O=c1c(-c2ccc(O)cc2)coc2c([C@@H]3O[C@H](CO)[C@@H](O)[C@H](O)[C@H]3O)c(O)ccc12 [puerarin]  solubility at 12 h  5800 µg/mL

* * *

Assay: physchem
Details: phosphate buffer, 25 °C, pH 6.86, aqueous buffer, thermodynamic from solid
Where a name gives a salt, the structure may show the parent alone.
MEASURE: solubility at 12 h (µg/mL)

> print(dat)
                                   compound             measure  observed
1  COc1cc2nc(N3CCN(C(=O)c4ccco4)CC3)nc(N)c2cc1OC [prazosin hydrochloride]  solubility at 12 h    0.0495
